The measurements presented in this section are drawn from ChEMBL document CHEMBL1154181.

Target: Alpha-2A adrenergic receptor (Homo sapiens)
Sequence (P08913 whole entry): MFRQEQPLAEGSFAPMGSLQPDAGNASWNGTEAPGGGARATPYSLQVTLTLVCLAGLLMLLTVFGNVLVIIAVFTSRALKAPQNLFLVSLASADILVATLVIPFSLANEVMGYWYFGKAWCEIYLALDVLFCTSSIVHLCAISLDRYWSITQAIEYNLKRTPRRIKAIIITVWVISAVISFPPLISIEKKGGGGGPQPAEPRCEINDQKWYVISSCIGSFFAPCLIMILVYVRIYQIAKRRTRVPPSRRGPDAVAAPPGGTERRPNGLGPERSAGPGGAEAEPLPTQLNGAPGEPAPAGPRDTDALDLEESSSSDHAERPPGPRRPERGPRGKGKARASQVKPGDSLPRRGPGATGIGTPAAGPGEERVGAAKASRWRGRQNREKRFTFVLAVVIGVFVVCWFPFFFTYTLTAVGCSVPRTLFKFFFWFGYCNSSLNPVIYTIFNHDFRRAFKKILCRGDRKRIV
Experiment: Displacement of [3H][…] from human recombinant adrenergic alpha2A receptor expressed in insect Sf9 cells after 60 mins
pIC50: −log10 of the molar value.
RECORDED_ENDPOINT: pIC50

> print(dat)
                              smiles.string  recorded.result
1  C=Cc1c(C)nn(CCCN2CCN(c3ccc(C)cc3)CC2)c(=O)c1N             6.49
